Tested on: NOMO1
Experiment: AUC of viability dose-response curve (% viability x log10 dose units); higher = less sensitive
Conditions: HPLM + 10% dialyzed FBS; 48 h
I'd appreciate it if you marked entries YES when AUC of viability dose-response curve is lower than 400 and NO when it is not.

# MOL, ASSIGNED CLASS
measured = [
    ("COc1cc2c(cc1OC)[C@@H]1Cc3ccc(OC)c(OC)c3CN1CC2", "NO"),
    ("c1ccc(CNc2nc(NCc3ccccc3)c3ccccc3n2)cc1", "NO"),
    ("CCOC(=O)c1c(C)n(C)c2ccc(O)cc12", "NO"),
    ("CCCCCNC(=N)N/N=C/c1c[nH]c2ccc(OC)cc12", "NO"),
    ("NC(=O)c1cnccn1", "NO"),
    ("CCn1nnc2c(N3CCOCC3)nc(-c3ccc(NC(=O)Nc4ccc(C(=O)N5CCN(C)CC5)cc4)cc3)nc21", "YES"),
    ("C=CC(=O)Nc1cc2c(Nc3ccc(F)c(Cl)c3)ncnc2cc1C#CC(C)(C)N1CCN(C)CC1", "YES"),
    ("O=C1NC(=O)/C(=C/c2ccc3nccnc3c2)S1", "NO"),
]

###

System: NOMO1
Experiment: cell viability relative to DMSO control; higher = less cytotoxic
Details: HPLM + 10% dialyzed FBS; 48 h; 0.0632 µM

# COMPOUND, MEASURED ON, cell viability (%)
records = [
    ("OC[C@H]1O[C@H](C[C@@H]1O)N2/C=C(C(=O)NC2=O)/C(F)(F)F", "NOMO1", 120),
    ("C=CC(=O)Nc1cc2c(Nc3ccc(F)c(Cl)c3)ncnc2cc1C#CC(C)(C)N1CCN(C)CC1", "NOMO1", 92),
    ("Oc1ccc(OCc2ccccc2)cc1", "NOMO1", 132),
    ("CC1(C)SCCN([S+](=O)([O-])c2ccc(OCC#CCO)cc2)[C@H]1C(=O)NO", "NOMO1", 124),
    ("CCCN[C@H]1CCc2nc(N)sc2C1", "NOMO1", 95.4),
    ("CC[C@H]1OC(=O)[C@H](C)[C@@H](O[C@H]2C[C@@](C)(OC)[C@@H](O)[C@H](C)O2)[C@H](C)[C@@H](O[C@@H]2O[C@H](C)C[C@H](N(C)C)[C@H]2O)[C@](C)(OC)C[C@@H](C)C(=O)[C@H](C)[C@@H](O)[C@]1(C)O", "NOMO1", 89.3),
    ("CO[C@H]1CCC(O[C@H]2C[C@H]([C@]3(C)CC[C@]4(C[C@H](O)[C@@H](C)[C@@H]([C@@H](C)/C=C(\\C)C(=O)[C@H](C)C[C@H](C)C(=O)[O-])O4)O3)O[C@]3(O[C@@H]([C@H]4O[C@@](O)(CO)[C@H](C)C[C@@H]4C)C[C@@H]3C)[C@@H]2C)O[C@@H]1C (stereo partly specified)", "NOMO1", 134),
    ("C[S+](=O)([O-])Oc1ccc2c(NC(N)=O)c(C(=O)c3ccc(Cl)cc3Cl)oc2c1", "NOMO1", 140),
    ("Nc1n[nH]c2nnc(-c3c(-c4ccccc4)nn4ccccc34)cc12", "NOMO1", 134),
    ("COc1cc2c(cc1OC)[C@@H]1Cc3ccc(OC)c(OC)c3CN1CC2", "NOMO1", 118),
    ("N[S+](=O)([O-])c1ccc(Nc2nc(OCC3CCCCC3)c3[nH]cnc3n2)cc1", "NOMO1", 119),
    ("c1cc(-c2cnn3cc(-c4ccc(OCCN5CCCCC5)cc4)cnc23)ccn1", "NOMO1", 83.1),
    ("Cc1nc(-c2ccc(OCC(C)C)c(C#N)c2)sc1C(=O)O", "NOMO1", 142),
    ("Cc1cc(Nc2cc(N3CCN(C)CC3)nc(/C=C/c3ccccc3)n2)n[nH]1", "NOMO1", 135),
    ("COc1ccc(F)c(F)c1C(=O)c1cnc(NC2CCN([S+](C)(=O)[O-])CC2)nc1N", "NOMO1", 119),
    ("Nc1ccc(C(=O)Nc2cccc(-c3nc(N4CCOCC4)c4oc5ncccc5c4n3)c2)cn1", "NOMO1", 115),
]
